- Tested on: MCF7 breast
- protocolDetails: NCI tumour cell line growth inhibition, 48 h
Collected TGI values appear next to each entry.
Write the answer as a number in µM, unit excluded.

[
  {
    "smilesRecord": "Cc1nc2cc(Nc3nc(Nc4ccc(F)cc4)nc(N4CCOCC4)n3)ccc2n1Cc1ccccc1",
    "unitSpec": "µM",
    "observedMeasurement": 13.8
  }
]

State TGI on MCF7 breast. Entry: "CC(C)c1ccccc1SCc1cc(=O)cc(CSc2ccccc2C(C)C)o1" 57.5

----------
Catalogue of TGI readings, one per entry.
- System: TK-10 renal
- protocolDetails: NCI tumour cell line growth inhibition, 48 h

Example entries begin here.
[
  {
    "molecule": "COC1C(N(C)C)=C(c2ccccc2)C(=O)N2CCc3ccccc3C12 (stereo not given)",
    "experimentalSystem": "TK-10 renal",
    "TGI": "> 100 µM"
  },
  {
    "molecule": "c1ccc(OCc2nnc3n2N=C(c2ccccc2)CS3)cc1",
    "experimentalSystem": "TK-10 renal",
    "TGI": "> 100 µM"
  },
  {
    "molecule": "O=C(O)[C@H](CCC[C@H]1C(=O)O[C@H](c2ccccc2)[C@H](c2ccccc2)N1C(=O)OCc1ccccc1)N[C@@H](c1ccccc1)[C@H](O)c1ccccc1",
    "experimentalSystem": "TK-10 renal",
    "TGI": "> 100 µM"
  },
  {
    "molecule": "N/C1=C/C(=O)NC(=O)c2c(c3ccccc3oc2=O)C1",
    "experimentalSystem": "TK-10 renal",
    "TGI": "> 100 µM"
  }
]

Please turn your attention to the following entry.
Report measured TGI; entry is "NC(=O)c1sc(-n2cnc3cc(C(F)(F)F)ccc32)cc1OCc1ccccc1Br" > 25 µM

----------
- Tested on: SK-MEL-5 melanoma
- protocolDetails: NCI tumour cell line growth inhibition, 48 h
observable: TGI

[
  {
    "molecule": "OCCN(CCO)c1cccc(N(CCO)CCO)n1",
    "TGI": "> 100 µM"
  }
]

Give the measured TGI for "O=C1C(c2c(O)[nH]c3ccc(Br)cc23)=Nc2ccc(Br)cc21" > 100 µM

Please give measured TGI of the following entry: "O=C1CN(c2cccc(Cl)c2)C(=O)CN1NCNN1CC(=O)N(c2cccc(Cl)c2)CC1=O" > 100 µM

Give TGI for "O=C(Nc1ccc(S(=O)(=O)/N=c2\ncccn2C(=O)C(C(F)(F)F)C(F)(F)F)cc1)C(C(F)(F)F)C(F)(F)F" > 100 µM

Indicate its recorded TGI; the molecule in question is CCN1CCC(CNC(=O)c2ccc(N)cc2)N1CC (stereo not drawn) > 100 µM

State its TGI for this molecule: "COc1ccccc1C1(c2c(OC)c(=O)c2=O)SCCCS1" > 100 µM

In one line, give reported TGI of the entry CNc1ncnc2c1nc(NC1CCCC1)n2C1OC(CO)C(O)C1O (stereo not drawn) . > 100 µM

----------
Listing: TGI of selected compounds
- Tested on: HCT-15 colon
- protocolDetails: NCI tumour cell line growth inhibition, 48 h

In the examples that follow, each entry is paired with its recorded TGI.
[
  {
    "compound": "Cn1cc(C2=C(Nc3ccccc3)C(=O)NC2=O)c2ccccc21",
    "TGI": "> 25 µM"
  },
  {
    "compound": "O=Cc1ccc(-c2ccc(-c3nc4ccccc4s3)cc2)s1",
    "TGI": "> 100 µM"
  },
  {
    "compound": "O=C1CSC(c2cccc(Cl)c2)N1c1ccc(-c2ccc(-n3c(-c4ccccc4)nc4ccccc4c3=O)cc2)cc1 (stereo unspecified)",
    "TGI": "> 100 µM"
  },
  {
    "compound": "C=Cn1c([N+](=O)[O-])cnc1/C=C/c1ccc(C(=O)OCCN2CCOCC2)cc1",
    "TGI": "> 100 µM"
  },
  {
    "compound": "O=C(O)/C=C/c1c[nH]c(=O)[nH]c1=O",
    "TGI": "> 500 µM"
  }
]

Now for the compound whose TGI we want.
Fetch value of TGI on HCT-15 colon for C[C@]12CC(c3ccccc3O1)C(C(=O)Nc1nc(C34CC5CC(CC(C5)C3)C4)cs1)C(=O)N2 (stereo partly specified) . > 100 µM

----------
- System: NCI-H226 lung
- protocolDetails: NCI tumour cell line growth inhibition, 48 h
observable: TGI

// worked examples, TGI included
[
  {
    "molecule": "COc1c(N2CCN(CN3C(=O)C(=O)c4cc(Cl)ccc43)C(C)C2)c(F)cc2c(=O)c(C(=O)O)cn(C3CC3)c12 (stereo unspecified)",
    "TGI": "> 100 µM"
  },
  {
    "molecule": "NC(=O)c1sc(-n2cnc3cc(C(F)(F)F)ccc32)cc1OCc1ccccc1Br",
    "TGI": "> 25 µM"
  },
  {
    "molecule": "CC1(C)OC2OC(C(COS(=O)(=O)C(F)(F)F)N=[N+]=[N-])C(OC(=O)c3ccccc3)C2O1 (stereo unspecified)",
    "TGI": "> 100 µM"
  },
  {
    "molecule": "Cc1cc(S(=O)(=O)Nc2n[nH]c(N)n2)c(Cl)cc1Cl",
    "TGI": "> 10 µM"
  },
  {
    "molecule": "Cc1ccc2c(c1)nc1n2C(N)=Nc2ccccc2S1",
    "TGI": "> 100 µM"
  }
]

Shift focus to the following entry.
Find TGI for O=C1OC(=O)C2C3C=CC(C12)C1C2C=CC2C31 (stereo unspecified) on NCI-H226 lung and write it down. > 100 µM

----------
Listed here: items and their measured TGI.
- Test system: SN12C renal
- protocolDetails: NCI tumour cell line growth inhibition, 48 h

In the examples that follow, each entry is paired with its recorded TGI.
[
  {
    "molecule": "N#Cc1cccc(C=NC23CC4CC(CC(C4)C2)C3)c1",
    "experimentalSystem": "SN12C renal",
    "TGI": "> 100 µM"
  },
  {
    "molecule": "COc1ccc(NCC(=O)Nn2c(-c3ccccc3)nc3ccccc3c2=O)cc1",
    "experimentalSystem": "SN12C renal",
    "TGI": "> 100 µM"
  }
]

Answer with TGI of C/C(=C/CC[C@]1(CO)CC[C@]2(C)[C@H](CC[C@@H]3[C@@]4(C)CC[C@H](OC5OC(CO)C(O)C(O)C5OC5OC(CO)C(O)C(O)C5O)C(C)(C)[C@@H]4CC[C@]32C)[C@H]1O)CO (stereo partly drawn) measured for SN12C renal. > 100 µM

Output reported TGI of the molecule "Cc1ccc2nc(-c3ccc(C(C)(C)C)cc3)oc(=O)c2c1" on SN12C renal. > 100 µM

Quote SN12C renal TGI for entry NC(Cc1ccc2nc3c4ccccc4c(=O)cc-3oc2c1)C(=O)O (stereo not drawn) . > 100 µM

# return TGI of "CCOC(=O)C1(C#N)CC1" (system: SN12C renal) > 100 µM

# assay system SN12C renal: give TGI of "COc1nc2ccc(COc3ccc(C(=O)O)cc3)cc2nc1OC" > 100 µM

Recall the reported TGI of "COc1cccc(SSc2cccc(OC)c2C(=O)O)c1C(=O)O" on SN12C renal and write it down. > 100 µM

Provide TGI, system SN12C renal, entry CCN1CCC(CNC(=O)c2ccc(N)cc2)N1CC (stereo not drawn) > 100 µM

Please tell me the measured TGI for "O=c1[nH]c(NCc2ccc(Cl)cc2)nc2nc[nH]c12" ; system: SN12C renal. > 100 µM

Give SN12C renal TGI for the following molecule: "CCn1c(CCl)nc2c1C(=O)c1ccccc1C2=O" 2.97 µM

Provide TGI, tested on SN12C renal, for "COc1ccc(NC(=O)CC(=O)n2nc(C)c(N=Nc3ccccc3C(=O)O)c2C)cc1" . > 100 µM

----------
- System: K-562 leukemia
- protocolDetails: NCI tumour cell line growth inhibition, 48 h
Recorded TGI by entry

Study these solved cases before continuing.
[
  {
    "compound": "Cc1ccc(-n2nnnc2-c2cnc(N3CCOCC3)nc2-c2cccc(C(F)(F)F)c2)cc1",
    "TGI": "> 22.6 µM"
  },
  {
    "compound": "CC(C)N(C(=O)C12C3C4C1C1C2C3C41C(N)=O)C(C)C (stereo not given)",
    "TGI": "> 100 µM"
  },
  {
    "compound": "O=C1CCCCC12CCC/C2=N\\O (stereo not given)",
    "TGI": "> 100 µM"
  },
  {
    "compound": "CCn1c(CCl)nc2c1C(=O)c1ccccc1C2=O",
    "TGI": "> 100 µM"
  },
  {
    "compound": "CCCCCCNCc1cc(C(C)(C)C)cc(CNCCCCCC)c1O",
    "TGI": "3.04 µM"
  },
  {
    "compound": "COc1ccc(NC(=O)CC(=O)n2nc(C)c(N=Nc3ccccc3C(=O)O)c2C)cc1",
    "TGI": "> 100 µM"
  }
]

Supply measured TGI of "COc1ccccc1C1(c2c(OC)c(=O)c2=O)SCCCS1" in your reply. > 100 µM

Provide TGI value for the following compound: C/C(=C/CC[C@]1(CO)CC[C@]2(C)[C@H](CC[C@@H]3[C@@]4(C)CC[C@H](OC5OC(CO)C(O)C(O)C5OC5OC(CO)C(O)C(O)C5O)C(C)(C)[C@@H]4CC[C@]32C)[C@H]1O)CO (stereo not given in full) > 100 µM

In one line, give reported TGI of the entry "CCOC(=O)c1c(SC(=O)c2ccc(OC)cc2)n(-c2ccccc2)c(=S)n(-c2ccccc2)c1=O" . > 100 µM

Answer with the recorded TGI for the compound listed here: CN(CCCCCl)P(=O)(OCc1ccc([N+](=O)[O-])o1)OCC1OC(n2cnc([N+](=O)[O-])c2N)C(O)C1O (stereo not given) > 100 µM

Provide TGI value for the following compound: CCN1CCC(CNC(=O)c2ccc(N)cc2)N1CC (stereo not given) > 100 µM

Entry "Cc1cc(Cl)ccc1C(=O)c1ccc2ccccc2c1C(=O)O" needs its TGI filled in; supply it. > 100 µM

Identify measured TGI corresponding to "Cn1cc(S(=O)(=O)NC(=O)Nc2ccc(Cl)cc2)c(=O)c2ccc(F)cc21" > 100 µM
